# measured_target: human GLP-1 receptor (human) (UniProt P43220)
# Sequence (P43220 24-463): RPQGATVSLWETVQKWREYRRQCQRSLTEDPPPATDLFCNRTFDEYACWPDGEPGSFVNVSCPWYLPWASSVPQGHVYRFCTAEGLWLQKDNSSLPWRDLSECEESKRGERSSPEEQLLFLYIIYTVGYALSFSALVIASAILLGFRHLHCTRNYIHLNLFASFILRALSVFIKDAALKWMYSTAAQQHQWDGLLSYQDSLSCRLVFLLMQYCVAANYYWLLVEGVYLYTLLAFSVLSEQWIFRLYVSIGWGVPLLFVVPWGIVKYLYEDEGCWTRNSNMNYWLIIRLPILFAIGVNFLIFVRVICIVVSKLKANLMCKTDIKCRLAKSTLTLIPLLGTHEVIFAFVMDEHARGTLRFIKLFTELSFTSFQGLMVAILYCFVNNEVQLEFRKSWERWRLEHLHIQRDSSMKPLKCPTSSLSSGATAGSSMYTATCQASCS
# assay: cell-based or functional assay
Overview of reported cAMP EC50 across a group of binders:

binder	cAMP EC50
IP018 (Fc fusion) YSEGTFISDYSIAMDKIHQQDFVNWLLAQKAAAGGSGSTASSGSGSATGGGGAATHTCPPCPAPEF	> 317 nM
IP314 (Fc fusion) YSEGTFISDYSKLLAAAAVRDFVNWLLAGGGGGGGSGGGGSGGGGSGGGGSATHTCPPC	> 906 nM
IP338 (Fc fusion) YSEGTFISDYSIAMDKIHQQDFVNWLLAQKGGGGGSGGGGSGGGGSGGGGSGGGGSGGGGSGGGGSGGGGSAN	> 1890 nM
IP347 (Fc fusion) YSEGTFTSDYSKLLERQAIDEFIAILLKGGGGGGGSGGGGSGGGGSGGGGSGGGGSGGGGSA	0.75 nM
IP407 (Fc fusion) YSEGTFTSDYSKLLEEEAIRLFIEWLLAGGGGGGSGGGGSGGGGSGGGGSATHTCPPC	0.25 nM
